# System: Bacteroides uniformis
# experiment-notes: growth AUC relative to DMSO control (median of replicates) (fraction); higher = more growth (less inhibition), active = hit call of the paper
# experimental-parameters: 20 µM; 24 h
# Lookup of reported growth AUC keyed by entry
assay-readout: growth AUC

1. CCOC(=O)/C=C(C)/C=C/C[C@@H](C)CCCC(C)C
0.984
2. O=C(O)c1nc(Cl)ccc1Cl
1.01
3. CC(C)(C)C(O)C(Oc1ccc(Cl)cc1)n1cncn1 (configuration not stated)
1.04
4. CCOP(=S)(NC(C)CC)Oc1cc(C)ccc1[N+](=O)[O-] (configuration not stated)
0.917
5. CC(C)=CC1C(C(=O)OC(C#N)c2cccc(Oc3ccccc3)c2)C1(C)C (mixture of isomers)
1.06
6. CC(COc1ccc(Oc2ccccc2)cc1)Oc1ccccn1 (configuration not stated)
0.994
7. CCCCOC(=O)N(C)SN(C)C(=O)Oc1cccc2c1OC(C)(C)C2
1
8. CCCCCCCC(=O)Oc1c(I)cc(C#N)cc1I
0.88
9. COP1(=S)OCc2ccccc2O1 (configuration not stated)
0.986
10. COP(=O)(OC)OC(Br)C(Cl)(Cl)Br (configuration not stated)
0.962
11. O=C(O)C(F)(F)C(F)(F)C(F)(F)C(F)(F)C(F)(F)C(F)(F)F
1.02
12. Cc1cc(OC(=O)N(C)C)nn1C(=O)N(C)C
0.979
13. ClC1C(Cl)C(Cl)C(Cl)C(Cl)C1Cl (mixture of isomers)
0.916
14. CC(C)C1(C)N=C(c2ncccc2C(=O)O)NC1=O (configuration not stated)
1.02
15. OC(c1ccc(F)cc1)(c1cncnc1)c1ccccc1Cl (configuration not stated)
0.954
16. CCCCN(CCCC)SN(C)C(=O)Oc1cccc2c1OC(C)(C)C2
1.03
17. CN(C)c1nc(=O)n(C2CCCCC2)c(=O)n1C
1.01
18. CCCCC(C#N)(Cn1cncn1)c1ccc(Cl)cc1 (configuration not stated)
0.975
19. CCOP(=O)(NC(C)C)Oc1ccc(S(C)=O)c(C)c1 (configuration not stated)
1.02
20. CCNC(=O)NC(=O)/C(C#N)=N/OC
0.956
21. CC(C)OC(=O)Nc1cccc(Cl)c1
0.984
22. Cc1ccccc1CO[C@@H]1C[C@@]2(C(C)C)CC[C@]1(C)O2 (mixture of isomers)
0.997
23. CNC(=S)S
1
24. Cc1cc(Cl)ccc1N=CN(C)C
1.02
25. CCNc1nc(Cl)nc(NCC)n1
1.01
26. O=c1c2cc(F)ccc2nc(-n2cncn2)n1-c1ccc(Cl)cc1Cl
0.937
27. COP(=O)(OC)Oc1ccc(S(C)=O)c(C)c1 (configuration not stated)
0.994
28. CC1(C)C(C=C(Cl)Cl)C1C(=O)OC(C#N)c1ccc(F)c(Oc2ccccc2)c1 (mixture of isomers)
0.98
29. C[C@@H](Oc1ccc(Oc2ncc(C(F)(F)F)cc2Cl)cc1)C(=O)O
0.975
30. CC(=NCc1ccc(Cl)nc1)NC#N
1.03
31. CCC/C(=N\OCC)C1=C(O)CC(CC(C)SCC)CC1=O (configuration not stated)
1.01
32. CC1(C)CON(Cc2ccccc2Cl)C1=O
0.949
33. CCCN(CCC)c1c([N+](=O)[O-])cc(S(C)(=O)=O)cc1[N+](=O)[O-]
0.954
34. CCNc1nc(Cl)nc(NC(C)(C)C#N)n1
0.986
35. Oc1ccc(Cc2ccc(O)cc2)cc1
1.01
36. O=c1[nH]c2c(c(=O)n1C1CCCCC1)CCC2
0.972
37. C#CCN1C(=O)COc2cc(F)c(N3C(=O)C4=C(CCCC4)C3=O)cc21
0.959
38. CCCC1COC(Cn2cncn2)(c2ccc(Cl)cc2Cl)O1 (configuration not stated)
0.871
39. CCOC(=O)C(O)(c1ccc(Cl)cc1)c1ccc(Cl)cc1
0.991
40. CC1(C(=O)Nc2ccc(O)c(Cl)c2Cl)CCCCC1
0.962
41. CCOP(=S)(OCC)SCSc1ccc(Cl)cc1
0.943
42. CC(C)[C@H](C(=O)O[C@H](C#N)c1cccc(Oc2ccccc2)c1)c1ccc(Cl)cc1
1.02
43. CCOC1Oc2ccc(OS(C)(=O)=O)cc2C1(C)C (configuration not stated)
0.993
44. CC(Cc1ccc(C(C)(C)C)cc1)CN1CCCCC1 (configuration not stated)
1.02
45. CC(C)NC(=O)N1CC(=O)N(c2cc(Cl)cc(Cl)c2)C1=O
0.967
46. CNc1nc(C)c(C)c(OC(=O)N(C)C)n1
1.04
47. CCCN(CCC)N=O
1.03
